# target_desc: erbB2 (Homo sapiens, UniProt P04626)
# Construct: to give a cell line that overexpresses full length wild type erbB2 protein; expressed in transfected cells; host or cells: MCF7 (breast carcinoma) derived 'Clone 24' cells
# Sequence (P04626 23-1255): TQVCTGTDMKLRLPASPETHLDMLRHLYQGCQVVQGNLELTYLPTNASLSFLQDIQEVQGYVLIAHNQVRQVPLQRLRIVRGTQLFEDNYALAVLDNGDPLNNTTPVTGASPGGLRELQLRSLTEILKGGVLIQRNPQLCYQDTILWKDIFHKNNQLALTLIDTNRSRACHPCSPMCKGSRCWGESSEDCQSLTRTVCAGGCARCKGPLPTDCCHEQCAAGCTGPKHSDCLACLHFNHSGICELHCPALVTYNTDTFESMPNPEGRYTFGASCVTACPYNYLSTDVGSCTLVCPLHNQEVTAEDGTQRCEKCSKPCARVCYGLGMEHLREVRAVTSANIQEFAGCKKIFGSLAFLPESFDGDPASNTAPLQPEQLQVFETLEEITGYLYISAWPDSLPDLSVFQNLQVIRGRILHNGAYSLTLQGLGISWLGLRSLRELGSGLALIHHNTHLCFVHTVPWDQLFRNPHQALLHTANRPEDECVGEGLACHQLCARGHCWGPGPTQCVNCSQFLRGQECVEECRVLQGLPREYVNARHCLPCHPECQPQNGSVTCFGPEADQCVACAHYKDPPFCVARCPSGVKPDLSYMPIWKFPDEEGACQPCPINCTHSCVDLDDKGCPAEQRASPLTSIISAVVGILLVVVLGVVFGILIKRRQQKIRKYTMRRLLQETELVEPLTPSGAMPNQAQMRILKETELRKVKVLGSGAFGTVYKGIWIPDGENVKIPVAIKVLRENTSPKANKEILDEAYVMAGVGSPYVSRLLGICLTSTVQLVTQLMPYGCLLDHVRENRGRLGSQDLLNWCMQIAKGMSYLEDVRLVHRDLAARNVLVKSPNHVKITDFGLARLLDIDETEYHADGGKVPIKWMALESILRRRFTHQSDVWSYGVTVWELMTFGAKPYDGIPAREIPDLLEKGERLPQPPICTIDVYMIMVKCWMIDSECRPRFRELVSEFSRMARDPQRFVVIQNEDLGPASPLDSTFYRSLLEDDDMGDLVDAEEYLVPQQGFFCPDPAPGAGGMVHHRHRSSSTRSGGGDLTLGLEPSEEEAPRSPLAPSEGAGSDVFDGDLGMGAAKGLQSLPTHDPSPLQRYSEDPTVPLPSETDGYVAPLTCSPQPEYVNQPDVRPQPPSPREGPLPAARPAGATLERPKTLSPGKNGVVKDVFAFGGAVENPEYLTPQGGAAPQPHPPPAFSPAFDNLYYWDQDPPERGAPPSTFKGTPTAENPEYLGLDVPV
# protocol_description: Clone 24 phospho-erbB2 cell assay, Test (d)
# Format: cell-based
# experimental_setup: MCF7 derived cell line (Clone 24) overexpressing erbB2, 4 hours; read-out: IC50 (μM) Test (d): Inhibition of phosphorylation of erbB2
metric: IC50 (µM)
Could you give me the number in µM? Just the number is fine.

stdin: Which IC50 is reported for this molecule? Cc1ccc(Oc2ccc(Nc3ncnc4[nH]nc(OCCN5CCOCC5)c34)cc2C)cn1
stdout: 0.083

====

# target_desc: EGFR tyrosine kinase (Homo sapiens)
# Construct: Recombinant intracellular fragments of EGFR, erbB2 and erbB4; made in house; host or cells: baculovirus/Sf21 insect cells (cleared lysate)
# Sequence (P00533 669-1210 limits assumed): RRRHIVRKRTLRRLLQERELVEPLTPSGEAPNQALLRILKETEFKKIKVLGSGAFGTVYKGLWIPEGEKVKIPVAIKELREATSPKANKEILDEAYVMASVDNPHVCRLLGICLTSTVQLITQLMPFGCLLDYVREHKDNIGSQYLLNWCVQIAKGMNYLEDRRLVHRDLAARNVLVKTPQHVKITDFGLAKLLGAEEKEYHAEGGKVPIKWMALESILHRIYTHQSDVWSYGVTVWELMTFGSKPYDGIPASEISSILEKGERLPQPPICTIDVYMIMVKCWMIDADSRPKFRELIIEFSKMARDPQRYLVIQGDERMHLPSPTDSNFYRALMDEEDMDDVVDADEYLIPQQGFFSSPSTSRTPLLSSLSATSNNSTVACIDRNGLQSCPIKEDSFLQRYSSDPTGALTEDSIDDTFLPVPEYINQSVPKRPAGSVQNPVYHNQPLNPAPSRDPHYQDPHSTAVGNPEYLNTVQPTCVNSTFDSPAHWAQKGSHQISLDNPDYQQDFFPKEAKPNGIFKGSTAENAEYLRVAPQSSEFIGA
# protocol_description: Protein tyrosine kinase phosphorylation assay, Test (a), EGFR
# Format: biochemical
# experimental_setup: recombinant intracellular fragment, ATP at Km concentration; read-out: IC50 (μM) Test (a): Inhibition of EGFR tyrosine kinase protein phosphorylation
metric: IC50
Hey, just the number and the unit after it is fine.

stdin: Which IC50 is reported for this molecule? Cc1ccc(Oc2ccc(Nc3ncnc4[nH]nc(OCCN5CCOCC5)c34)cc2C)cn1 [Example 42]
stdout: 0.71 µM
